test system: H1299 cells; experiment: XTT cytotoxicity assay on H1299 cells; assay type: cell-based; conditions: H1299; 48 h continuous exposure
Bridge positions count the residues as written; N and C are the ends. Square brackets hold non-standard residues; d marks the D form. Peptide text beside a SMILES is read from it. * marks the point of attachment. Camptothecin(20S-OCO) = CC[C@@]1(OC(=O)*)C(=O)OCc2c1cc1n(c2=O)Cc2cc3ccccc3nc2-1; Abu = CC[C@H](N)C(=O)O; GABA = NCCCC(=O)O
# IC50 listing for each entry below
Express the result in µM but write the number alone.

CC[C@H](C)[C@@H]1NC(=O)[C@H](Cc2ccc(O)cc2)NC(=O)[C@H](CO)NC(=O)CNC(=O)[C@@H]2CCCN2C(=O)[C@H](C(C)C)NC(=O)[C@H](Cc2cnc[nH]2)NC(=O)[C@@H](N)CSSC[C@@H](C(N)=O)NC1=O [Peptide P6] (H-CHVPGSYIC-NH2; disulfide 1-9): 32

Inquiry: Entry under review: CC[C@@H]1NC(=O)[C@@H](NC(=O)CCCNC(=O)O[C@]2(CC)C(=O)OCc3c2cc2n(c3=O)Cc3cc4ccccc4nc3-2)CSSC[C@@H](C(N)=O)NC(=O)[C@H](Cc2ccc(O)cc2)NC(=O)[C@H](CO)NC(=O)[C@H](CCC(N)=O)NC(=O)[C@H](CCSC)NC(=O)[C@H](C)NC(=O)[C@H](CC(N)=O)NC1=O [Peptide P9-CPT] ({Camptothecin(20S-OCO)-GABA}-C[Abu]NAMQSYC-NH2; disulfide 1-9) . Reported IC50?
Reply text: 2.2

Inquiry: Next record, please: CSCC[C@@H]1NC(=O)[C@H](C)NC(=O)[C@H](CC(N)=O)NC(=O)[C@H](C(C)C)NC(=O)[C@@H](N)CSSC[C@@H](C(N)=O)NC(=O)[C@H](Cc2ccc(O)cc2)NC(=O)[C@H](CO)NC(=O)[C@H](CCC(N)=O)NC1=O [Peptide P9] (H-CVNAMQSYC-NH2; disulfide 1-9)
Reply text: 27.3

Inquiry: Next record, please: CC[C@H](C)[C@@H]1NC(=O)[C@H](Cc2ccc(O)cc2)NC(=O)[C@H](CO)NC(=O)CNC(=O)[C@@H]2CCCN2C(=O)[C@H](C(C)C)NC(=O)[C@H](Cc2cnc[nH]2)NC(=O)[C@@H](NC(=O)CCCNC(=O)O[C@]2(CC)C(=O)OCc3c2cc2n(c3=O)Cc3cc4ccccc4nc3-2)CSSC[C@@H](C(N)=O)NC1=O [Peptide P6-CPT] ({Camptothecin(20S-OCO)-GABA}-CHVPGSYIC-NH2; disulfide 1-9)
Reply text: 5.5
